molecular target: human TLR7 (Homo sapiens); experiment: HEK293-Blue-hTLR-7 cells assay; settings: HEK293-Blue-hTLR7 cells, R848 stimulation, 20 hrs, SEAP reporter; read-out: HEK/hTLR7 IC50
Sequence (Q9NYK1 27-1049): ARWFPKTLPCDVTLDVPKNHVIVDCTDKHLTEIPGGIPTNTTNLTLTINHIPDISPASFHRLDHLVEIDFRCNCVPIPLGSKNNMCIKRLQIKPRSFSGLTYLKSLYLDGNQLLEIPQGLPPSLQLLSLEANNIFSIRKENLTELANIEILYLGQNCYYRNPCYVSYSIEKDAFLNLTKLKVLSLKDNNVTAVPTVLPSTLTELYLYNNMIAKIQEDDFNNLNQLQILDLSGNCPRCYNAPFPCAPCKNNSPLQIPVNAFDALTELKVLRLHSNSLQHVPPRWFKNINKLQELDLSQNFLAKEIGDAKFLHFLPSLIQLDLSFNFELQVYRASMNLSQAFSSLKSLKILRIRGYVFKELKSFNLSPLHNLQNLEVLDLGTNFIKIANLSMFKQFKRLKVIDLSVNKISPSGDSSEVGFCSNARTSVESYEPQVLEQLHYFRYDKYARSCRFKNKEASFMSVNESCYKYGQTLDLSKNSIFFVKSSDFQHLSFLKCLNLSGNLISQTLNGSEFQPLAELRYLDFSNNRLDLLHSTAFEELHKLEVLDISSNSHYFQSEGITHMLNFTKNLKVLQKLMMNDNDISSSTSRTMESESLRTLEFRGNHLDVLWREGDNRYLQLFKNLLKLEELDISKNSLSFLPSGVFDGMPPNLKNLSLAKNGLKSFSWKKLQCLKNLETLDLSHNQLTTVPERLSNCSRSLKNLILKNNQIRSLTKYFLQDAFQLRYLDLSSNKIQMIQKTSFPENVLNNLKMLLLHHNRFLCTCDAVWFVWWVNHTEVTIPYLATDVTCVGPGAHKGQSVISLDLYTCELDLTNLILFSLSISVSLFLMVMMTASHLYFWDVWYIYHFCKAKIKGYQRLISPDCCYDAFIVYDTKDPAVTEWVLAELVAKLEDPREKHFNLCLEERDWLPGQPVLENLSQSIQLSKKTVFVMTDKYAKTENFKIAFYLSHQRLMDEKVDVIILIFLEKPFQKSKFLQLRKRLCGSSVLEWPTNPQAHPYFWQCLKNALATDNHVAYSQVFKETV
pIC50: −log10 of the molar value.
outcomeMeasure: pIC50

(A) C[C@@H]1CN(c2ccc(C#N)c3ncccc23)C[C@@H]2CN(c3ccnc(N4CC(C)(N)C4)c3)CCN21
(B) CO[C@H]1CN(c2ccc(CCN3CCN4[C@@H](C3)CN(c3ccc(C#N)c5ncccc35)C[C@H]4C)cn2)C[C@H]1N
(C) CO[C@@H]1CN(c2ccc(CCN3CCN4[C@@H](C3)CN(c3ccc(C#N)n5nccc35)C[C@H]4C)cc2)C[C@H]1N
input: Put the compounds in ascending order of pIC50. List each label, following the requested order.
output: C, A, B

====

biological target: human TLR7 (Homo sapiens); experiment: HEK293-Blue-hTLR-7 cells assay; conditions: HEK293-Blue-hTLR7 cells, R848 stimulation, 20 hrs, SEAP reporter; read-out: HEK/hTLR7 IC50
outcomeMeasure: IC50 (nM)

>  <compound>
C[C@@H]1CN(c2ccc(C#N)c3ncccc23)C[C@@H]2CN(CCc3ccc(N4CC(C)(N)C4)nc3)CCN21 [Example 65]

>  <units>
nM

>  <IC50>
19

$$$$
>  <compound>
[2H]c1ccc2c(N3C[C@@H]4CN(c5ncc(N6CC7CC(C6)N7)cc5C)CCN4[C@@H](C)C3)ccc(C#N)c2n1 [Example 108]

>  <units>
nM

>  <IC50>
3

$$$$

(a) C[C@@H]1CN(c2ccc(C#N)c3ncccc23)C[C@@H]2CN(Cc3ccc4c(c3)CNCC4)CCN21 [Example 5]
(b) [2H]c1ccc2c(N3C[C@@H]4CN(c5ccc([C@@H]6CNCCO6)cc5)CCN4[C@@H](C)C3)ccc(C#N)c2n1 [Example 106]
input: Kindly compare a with b and tell me which has the lower IC50 figure. The response must carry the label of the picked entry.
output: b
(b: 2 nM, a: 17 nM)

====

Target: human TLR9 (Homo sapiens)
Construct: host or cells: HEK293 (HEK-Blue hTLR9)
Sequence (Q9NR96 26-1032): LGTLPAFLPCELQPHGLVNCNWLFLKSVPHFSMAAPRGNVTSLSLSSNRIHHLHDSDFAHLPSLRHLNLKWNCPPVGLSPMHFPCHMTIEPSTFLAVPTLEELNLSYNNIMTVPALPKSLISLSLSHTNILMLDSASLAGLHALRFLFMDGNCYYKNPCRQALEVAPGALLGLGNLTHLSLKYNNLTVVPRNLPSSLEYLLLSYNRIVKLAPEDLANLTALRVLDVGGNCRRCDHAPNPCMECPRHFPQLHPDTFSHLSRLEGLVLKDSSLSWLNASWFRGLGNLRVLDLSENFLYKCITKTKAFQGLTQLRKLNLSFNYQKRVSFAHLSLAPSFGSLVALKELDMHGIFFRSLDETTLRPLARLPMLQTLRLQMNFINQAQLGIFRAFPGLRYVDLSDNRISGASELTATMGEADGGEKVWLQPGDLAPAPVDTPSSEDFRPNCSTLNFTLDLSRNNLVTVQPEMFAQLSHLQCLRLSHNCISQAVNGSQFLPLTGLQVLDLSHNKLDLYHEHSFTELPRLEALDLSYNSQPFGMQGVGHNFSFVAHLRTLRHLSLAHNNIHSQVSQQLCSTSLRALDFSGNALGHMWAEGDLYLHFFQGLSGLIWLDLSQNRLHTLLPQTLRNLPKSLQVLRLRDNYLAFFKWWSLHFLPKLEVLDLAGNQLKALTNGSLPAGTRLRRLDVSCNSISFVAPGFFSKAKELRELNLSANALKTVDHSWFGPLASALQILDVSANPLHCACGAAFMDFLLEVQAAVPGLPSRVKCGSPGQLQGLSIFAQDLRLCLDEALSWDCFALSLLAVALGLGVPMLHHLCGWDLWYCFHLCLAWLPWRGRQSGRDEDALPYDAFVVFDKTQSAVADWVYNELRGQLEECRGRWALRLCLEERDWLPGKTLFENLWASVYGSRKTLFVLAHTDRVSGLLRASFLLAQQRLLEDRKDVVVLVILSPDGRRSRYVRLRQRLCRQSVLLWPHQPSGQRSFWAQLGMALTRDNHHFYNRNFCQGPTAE
Experiment: HEK293-Blue-hTLR-9 cells assay
Format: cell-based
Settings: HEK293-Blue-hTLR9 cells, ODN2006 stimulation, 20 hrs, SEAP reporter; read-out: HEK/hTLR9 IC50
outcomeMeasure: IC50 (nM)

Here are 2 compounds together with their reported answers.
>  <compound>
C[C@@H]1CN(c2ccc(C#N)c3ncccc23)C[C@@H]2CN(Cc3cnc4c(c3)CNCC4)CCN21

>  <outcomeMeasure>
IC50

>  <obsValue>
69

$$$$
>  <compound>
[2H]c1ccc2c(N3C[C@@H]4CN(CCc5ccc(N6C[C@@H](N)[C@@H](F)C6)nc5)CCN4[C@H](C)C3)ccc(C#N)c2n1

>  <outcomeMeasure>
IC50

>  <obsValue>
78

$$$$

(1) N#Cc1ccc(N2CCN3CCN(c4cccc5c4CNC5)CC3C2)c2cccnc12 (stereo not shown)
(2) C[C@@H]1CN(c2ccc(C#N)n3ncc(F)c23)C[C@@H]2CN(CCc3ccc(N4CC(C)(N)C4)nc3)CCN21
input: Compare IC50: is it lower for 1 or for 2 ? Your choice should be expressed through its label.
output: 2
